Reference for the values: ChEMBL document CHEMBL4689842

Measured Growth Rate values are reported for all entries that follow.
# Test system: HEK-293T
# test-protocol: Incucyte cell viability with HEK293T; note: filed as whole numbers so only -1 and 0 and 1 occur
# Type: toxicity, cell-based
# test-conditions: human, 0 h, 10 µM, compound concentration 10 uM, replicate number 1, timepoint 0 hours
# respond with the number and nothing more

Examples with their reported Growth Rate follow.
> print(dat)
                                   molecule  measurement
1  CC[C@@H]1CN2C(=O)N(C)c3nc(-c4ccccc4)[nH]c3C2=N1.Cl            1
2  O=C(NOCC1CC1)c1ccc(F)c(F)c1Nc1ccc(I)cc1Cl            0
3  CN(C)[C@H]1CCN(c2cc(-c3ccccc3)nc3ccnn23)C1 [(S)-ZINC-3573]            1
4  Cc1ccc(C(=O)Nc2cccc(C(F)(F)F)c2)cc1Nc1nc(-c2cccnc2)nc2c1cnn2C            0
5  COc1cc(N2CCN(C)CC2)ccc1Nc1ncc2c(n1)N(C)c1ccccc1C(=O)N2C            1

Exercise: Determine from records and report Growth Rate for "NC(=O)c1cccc(-c2cc(Nc3ccc(OC(F)(F)F)cc3)ncn2)c1"
Solution: 0

Exercise: Determine from records and report Growth Rate for "NS(=O)(=O)c1c(Cl)ccc(NC(=O)Nc2cccc(Cl)c2Cl)c1O"
Solution: 1

Exercise: Determine from records and report Growth Rate for "CC(C)c1onc(-c2c(Cl)cccc2Cl)c1COc1ccc(/C=C/c2cccc(C(=O)O)c2)c(Cl)c1"
Solution: 0
